molecular target: EPHB1 (UniProt P54762); assay: phosphorylation enrichment, bacterial display (enrichment ratio); higher = better substrate or ligand; peptides without Tyr show the background;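 also: 11-residue human phosphosite peptides and single-mutation variants displayed on the E. coli surface, counted by deep sequencing, each peptide's frequency after selection divided by its frequency in the unselected input library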;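 also: frequency after pTyr selection over input frequency; kinase dosed for 20-30% of maximal phosphorylation in three min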
Sequence (P54762 whole entry, looked up): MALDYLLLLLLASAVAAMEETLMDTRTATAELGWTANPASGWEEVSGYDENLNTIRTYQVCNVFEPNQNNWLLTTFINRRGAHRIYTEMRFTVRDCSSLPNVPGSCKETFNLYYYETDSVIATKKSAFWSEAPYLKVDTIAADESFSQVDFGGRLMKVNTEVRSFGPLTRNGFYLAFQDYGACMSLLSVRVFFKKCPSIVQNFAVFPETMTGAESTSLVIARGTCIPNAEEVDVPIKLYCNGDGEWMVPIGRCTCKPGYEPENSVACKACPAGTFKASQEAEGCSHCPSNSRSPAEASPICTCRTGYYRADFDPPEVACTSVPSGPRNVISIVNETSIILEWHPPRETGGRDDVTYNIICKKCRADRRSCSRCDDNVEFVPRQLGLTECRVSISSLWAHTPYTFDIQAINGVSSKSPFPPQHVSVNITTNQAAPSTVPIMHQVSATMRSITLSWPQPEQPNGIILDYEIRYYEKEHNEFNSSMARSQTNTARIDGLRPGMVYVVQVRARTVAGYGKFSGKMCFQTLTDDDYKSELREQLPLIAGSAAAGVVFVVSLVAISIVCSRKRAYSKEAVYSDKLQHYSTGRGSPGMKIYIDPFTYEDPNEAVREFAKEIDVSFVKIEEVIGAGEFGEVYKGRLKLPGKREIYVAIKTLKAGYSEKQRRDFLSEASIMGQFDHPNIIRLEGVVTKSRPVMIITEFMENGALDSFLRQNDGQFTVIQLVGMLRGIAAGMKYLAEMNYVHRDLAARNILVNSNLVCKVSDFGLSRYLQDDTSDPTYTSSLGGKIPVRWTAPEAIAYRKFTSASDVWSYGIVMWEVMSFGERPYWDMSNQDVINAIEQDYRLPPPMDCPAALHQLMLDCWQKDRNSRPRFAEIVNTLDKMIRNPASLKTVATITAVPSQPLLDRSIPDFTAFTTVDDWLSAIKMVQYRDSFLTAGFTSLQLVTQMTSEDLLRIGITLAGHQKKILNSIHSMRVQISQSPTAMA
metric name: phosphorylation enrichment

[
  {
    "residues": "LFSNAYLNDLA [ALDH1A1_Y119_YF]",
    "metric name": "phosphorylation enrichment",
    "test result": 0.794
  },
  {
    "residues": "RDWSLYFKIIE [KRT18_Y129_H128L]",
    "metric name": "phosphorylation enrichment",
    "test result": 0.799
  },
  {
    "residues": "KGSLPYSLILD [PKD1L2_Y406_N407S]",
    "metric name": "phosphorylation enrichment",
    "test result": 0.822
  }
]

* * *

test system: c-Abl (mouse); assay: phosphorylation enrichment, bacterial display (enrichment ratio); higher = better substrate or ligand; peptides without Tyr show the background
// Condition not met strictly below 0.7 in phosphorylation enrichment; Condition met otherwise

[
  {
    "residues": "SLDLSYYHTSS [EMD_Y181_P183H]",
    "class label": "Condition not met"
  },
  {
    "residues": "PARLEYYENEK [IRS1_Y46]",
    "class label": "Condition met"
  },
  {
    "residues": "IAINKYGVSLI [MYO7A_Y2136]",
    "class label": "Condition met"
  },
  {
    "residues": "NNKKDYYDMYE [SLC26A3_Y526_K521N]",
    "class label": "Condition not met"
  },
  {
    "residues": "LFQAKYQIRYR [CRLF1_Y272]",
    "class label": "Condition met"
  },
  {
    "residues": "KNNDGYIDFAE [MCFD2_Y135_YF]",
    "class label": "Condition not met"
  },
  {
    "residues": "INSLKYAYNVS [EIF2B5_Y583_I587V]",
    "class label": "Condition not met"
  },
  {
    "residues": "NPQKSYFICLF [WAS_Y83_R86C_YF]",
    "class label": "Condition met"
  },
  {
    "residues": "KLKEKYEKDIA [HMGB1_Y155]",
    "class label": "Condition not met"
  },
  {
    "residues": "QDDTVYMGKVI [DCTN1_Y1244_T1249I]",
    "class label": "Condition met"
  }
]

* * *

system: AncSZ; assay: phosphorylation enrichment, bacterial display (enrichment ratio); higher = better substrate or ligand; peptides without Tyr show the background
metric name: phosphorylation enrichment

[
  {
    "residues": "FISVGYVDDTQ [HLA-B_Y51]",
    "test result": 0.808
  },
  {
    "residues": "TGEDWYVLVRV [SF3B3_Y904_G908R]",
    "test result": 1.37
  },
  {
    "residues": "GESKDYALHAG [SVIL_Y185_V189A]",
    "test result": 0.548
  },
  {
    "residues": "FYDANYDGKEY [MAPRE2_Y162]",
    "test result": 1.22
  },
  {
    "residues": "TLQSMFGCDVG [HLA-B_Y123_Y123F]",
    "test result": 0.989
  }
]

* * *

molecular target: FGFR3 (UniProt P22607); test: phosphorylation enrichment, bacterial display (enrichment ratio); higher = better substrate or ligand; peptides without Tyr show the background
Sequence (P22607 whole entry, looked up): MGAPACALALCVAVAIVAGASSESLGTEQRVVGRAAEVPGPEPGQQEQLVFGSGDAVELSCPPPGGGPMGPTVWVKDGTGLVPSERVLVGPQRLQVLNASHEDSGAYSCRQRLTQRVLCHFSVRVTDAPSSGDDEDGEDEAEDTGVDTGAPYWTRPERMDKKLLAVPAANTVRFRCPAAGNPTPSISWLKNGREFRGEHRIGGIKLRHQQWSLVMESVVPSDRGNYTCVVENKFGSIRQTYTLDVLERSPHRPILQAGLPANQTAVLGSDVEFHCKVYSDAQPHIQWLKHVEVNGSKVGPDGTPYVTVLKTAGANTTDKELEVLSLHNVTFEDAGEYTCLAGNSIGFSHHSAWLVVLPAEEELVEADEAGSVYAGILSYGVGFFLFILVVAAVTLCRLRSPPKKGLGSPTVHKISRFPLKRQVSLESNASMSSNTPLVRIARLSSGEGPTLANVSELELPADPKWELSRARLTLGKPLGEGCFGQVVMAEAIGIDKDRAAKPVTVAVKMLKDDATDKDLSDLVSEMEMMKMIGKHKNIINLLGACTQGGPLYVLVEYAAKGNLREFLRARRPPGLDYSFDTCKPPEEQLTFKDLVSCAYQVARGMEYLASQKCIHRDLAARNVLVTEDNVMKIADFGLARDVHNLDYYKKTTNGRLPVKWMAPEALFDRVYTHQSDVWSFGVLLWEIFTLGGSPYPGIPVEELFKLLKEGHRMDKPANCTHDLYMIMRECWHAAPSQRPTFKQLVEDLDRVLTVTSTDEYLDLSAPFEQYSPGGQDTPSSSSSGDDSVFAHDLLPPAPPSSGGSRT
// Not met strictly below 0.8 in phosphorylation enrichment; Met otherwise

[
  {
    "residues": "YLENYYDLKKD [MMP3_Y42]",
    "test target": "FGFR3 (UniProt P22607)",
    "class label": "Met"
  },
  {
    "residues": "IHETTYKSIMK [ACTA1_Y281_N282K]",
    "test target": "FGFR3 (UniProt P22607)",
    "class label": "Not met"
  },
  {
    "residues": "PSPMPCASCQM [FOXL2_Y215_Y215C]",
    "test target": "FGFR3 (UniProt P22607)",
    "class label": "Not met"
  },
  {
    "residues": "MKGDFYRFLAE [YWHAG_Y131_YF]",
    "test target": "FGFR3 (UniProt P22607)",
    "class label": "Not met"
  },
  {
    "residues": "FEPWVYSFSYE [PRKDC_Y647]",
    "test target": "FGFR3 (UniProt P22607)",
    "class label": "Met"
  },
  {
    "residues": "KTNVSYCGALD [CACNB4_Y103]",
    "test target": "FGFR3 (UniProt P22607)",
    "class label": "Not met"
  },
  {
    "residues": "VDTPMYATMQR [TPO_Y55_A53P]",
    "test target": "FGFR3 (UniProt P22607)",
    "class label": "Not met"
  },
  {
    "residues": "IRKAEYPFSSE [ATP2C1_Y452]",
    "test target": "FGFR3 (UniProt P22607)",
    "class label": "Not met"
  },
  {
    "residues": "SLNEGYAKDFD [FBP1_Y216_R218K]",
    "test target": "FGFR3 (UniProt P22607)",
    "class label": "Not met"
  },
  {
    "residues": "QITQVCGFYDE [PPP2CA_Y127_Y127C]",
    "test target": "FGFR3 (UniProt P22607)",
    "class label": "Met"
  },
  {
    "residues": "HFMKLYEEKTG [PARP1_Y618]",
    "test target": "FGFR3 (UniProt P22607)",
    "class label": "Met"
  },
  {
    "residues": "VECRVYAEDPY [PCCA_Y401]",
    "test target": "FGFR3 (UniProt P22607)",
    "class label": "Met"
  },
  {
    "residues": "DRTGHYLCNAC [GATA1_Y223]",
    "test target": "FGFR3 (UniProt P22607)",
    "class label": "Not met"
  },
  {
    "residues": "AWVARYIFKRL [LPCAT3_Y348]",
    "test target": "FGFR3 (UniProt P22607)",
    "class label": "Not met"
  },
  {
    "residues": "FTGNTYRVGDT [FN1_Y106_YF]",
    "test target": "FGFR3 (UniProt P22607)",
    "class label": "Not met"
  },
  {
    "residues": "CSPLLYRVIMS [OR8D4_Y132]",
    "test target": "FGFR3 (UniProt P22607)",
    "class label": "Not met"
  },
  {
    "residues": "GDFLSYREFHS [ERBIN_Y1107_YF]",
    "test target": "FGFR3 (UniProt P22607)",
    "class label": "Not met"
  },
  {
    "residues": "ILGRFYETSSI [PAX2_Y73_G76S_YF]",
    "test target": "FGFR3 (UniProt P22607)",
    "class label": "Not met"
  }
]
